Assayed Target: T1, HIS-CALRdel52 (produced in E. coli)
T1 construct: also called recombinant CALRdel52 protein; CALRdel53 target protein
T1 chain: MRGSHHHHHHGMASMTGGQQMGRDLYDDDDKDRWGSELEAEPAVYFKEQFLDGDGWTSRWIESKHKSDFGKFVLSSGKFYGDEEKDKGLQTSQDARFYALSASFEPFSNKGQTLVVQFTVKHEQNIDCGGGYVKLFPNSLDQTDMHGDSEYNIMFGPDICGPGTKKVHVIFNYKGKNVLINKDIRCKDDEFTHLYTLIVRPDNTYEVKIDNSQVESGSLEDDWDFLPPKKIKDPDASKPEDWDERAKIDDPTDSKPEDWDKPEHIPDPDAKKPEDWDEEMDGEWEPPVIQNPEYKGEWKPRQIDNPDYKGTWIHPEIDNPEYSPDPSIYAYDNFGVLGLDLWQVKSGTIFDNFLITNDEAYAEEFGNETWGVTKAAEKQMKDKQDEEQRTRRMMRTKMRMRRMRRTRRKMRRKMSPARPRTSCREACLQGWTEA
Method Notes: QC monoclonal phage ELISA
Reported phage ELISA signal (Coating: CALR) values for the following binders.
Measured Property: phage ELISA signal (Coating: CALR)

Binder	Obs Value
Clone 20 (Fab, V domains shown, Rabbit/human chimeric Fab (human CH1, CK) on phage; also soluble Fab-AP) VH: QSLEESGGRLVTPGTPLTLTCTVSGIDLSNNAISWVRQAPGKGLEYIGVIGNTGDTYYASWAKGRFTISKTSSTTVDLKMTSLTTEDTATYFCVRGPPSYSNSVKNIWGPGTLVTISS VL: DPMLTQTPSSVSAAVGGTVTIGCQSSQSVYDKNWLSWYQQKPGQPPSRLIYDASKLESGVPSRFSGSGSGTQFTLTISGVQCDDAATYYCAGGFTGNVYAFGGGTKLEIK	2.69
Clone 18 (Fab, V domains shown, Rabbit/human chimeric Fab (human CH1, CK) on phage; also soluble Fab-AP) VH: QSVEESGGRLVTPGTPLTITCTVSGFSLSSYAMSWVRQAPGKGLEWIGVIDSGGTTYYATWAKSRFTISKTQTKVALKITSPTTEDTATYFCARESYAGYDGYGHPIPYGMDPWGPGTLVTVSS VL: DVVMTQTPSSVSAAVGGTVTINCQASQSLYNNKNLAWYQQKPGQPPKLLIYYASALASGVSSRFKGSGSGTQFTLTISGVQCDDAATYYCQGEFNCNSADCNSFGGGTEVVVK	1.91
Clone 16 (Fab, V domains shown, Rabbit/human chimeric Fab (human CH1, CK) on phage; also soluble Fab-AP) VH: QEQLKESGGRLVTPGTPLTLTCTASGFSLSNYYMSWVRQAPGKGLEWIGGISSRAGTWYASWAKGRFTISGTSTTMDLKITSPTTEDTATYFCARGLKIWGPGTLVTVSS VL: DPVLTQTESPVSAAVGGTVTINCQASQSVYDDNNLAWYQQKPGQPPKRLIYPASTLASGVSSRFSGSGSGSQFTLTISDVQCDDAATYYCQGEFSCTSADCVAFGGGTEVVVK	2.94

From: patent US20260125457A1
